- System tested: Cyclic GMP-AMP synthase (Homo sapiens)
- Sequence (Q8N884 whole entry, the tested form may be a part): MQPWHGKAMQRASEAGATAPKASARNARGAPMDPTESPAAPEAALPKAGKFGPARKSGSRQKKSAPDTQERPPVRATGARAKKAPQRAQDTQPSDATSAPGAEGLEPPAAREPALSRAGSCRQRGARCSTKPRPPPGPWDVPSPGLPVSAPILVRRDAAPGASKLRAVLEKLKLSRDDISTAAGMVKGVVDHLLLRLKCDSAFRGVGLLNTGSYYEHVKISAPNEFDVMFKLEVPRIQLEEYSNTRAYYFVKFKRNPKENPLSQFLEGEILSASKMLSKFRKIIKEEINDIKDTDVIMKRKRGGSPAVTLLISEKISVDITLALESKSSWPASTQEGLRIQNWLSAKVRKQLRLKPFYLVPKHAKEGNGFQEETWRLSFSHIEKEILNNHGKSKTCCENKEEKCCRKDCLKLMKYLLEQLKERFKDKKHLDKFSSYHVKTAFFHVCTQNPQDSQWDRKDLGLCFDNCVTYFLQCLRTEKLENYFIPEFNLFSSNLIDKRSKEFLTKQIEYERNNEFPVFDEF
- Protocol: Antagonist activity at N-terminal 6XHis tagged human cGAS (155 to 522 residues) expressed in Escherichia coli BL21 DE3 Rosetta 2 in presence of ATP by luciferase based assay
pIC50: −log10 of the molar value.

{"Smi": "COc1cccc2oc(-c3c(C#N)[nH]c4c(-c5ccccc5)c(C(F)(F)F)nn4c3=O)nc12", "pIC50": "> 4.70"}

###

- System tested: Toll-like receptor 8 (Homo sapiens)
- Sequence (Q9NR97 whole entry): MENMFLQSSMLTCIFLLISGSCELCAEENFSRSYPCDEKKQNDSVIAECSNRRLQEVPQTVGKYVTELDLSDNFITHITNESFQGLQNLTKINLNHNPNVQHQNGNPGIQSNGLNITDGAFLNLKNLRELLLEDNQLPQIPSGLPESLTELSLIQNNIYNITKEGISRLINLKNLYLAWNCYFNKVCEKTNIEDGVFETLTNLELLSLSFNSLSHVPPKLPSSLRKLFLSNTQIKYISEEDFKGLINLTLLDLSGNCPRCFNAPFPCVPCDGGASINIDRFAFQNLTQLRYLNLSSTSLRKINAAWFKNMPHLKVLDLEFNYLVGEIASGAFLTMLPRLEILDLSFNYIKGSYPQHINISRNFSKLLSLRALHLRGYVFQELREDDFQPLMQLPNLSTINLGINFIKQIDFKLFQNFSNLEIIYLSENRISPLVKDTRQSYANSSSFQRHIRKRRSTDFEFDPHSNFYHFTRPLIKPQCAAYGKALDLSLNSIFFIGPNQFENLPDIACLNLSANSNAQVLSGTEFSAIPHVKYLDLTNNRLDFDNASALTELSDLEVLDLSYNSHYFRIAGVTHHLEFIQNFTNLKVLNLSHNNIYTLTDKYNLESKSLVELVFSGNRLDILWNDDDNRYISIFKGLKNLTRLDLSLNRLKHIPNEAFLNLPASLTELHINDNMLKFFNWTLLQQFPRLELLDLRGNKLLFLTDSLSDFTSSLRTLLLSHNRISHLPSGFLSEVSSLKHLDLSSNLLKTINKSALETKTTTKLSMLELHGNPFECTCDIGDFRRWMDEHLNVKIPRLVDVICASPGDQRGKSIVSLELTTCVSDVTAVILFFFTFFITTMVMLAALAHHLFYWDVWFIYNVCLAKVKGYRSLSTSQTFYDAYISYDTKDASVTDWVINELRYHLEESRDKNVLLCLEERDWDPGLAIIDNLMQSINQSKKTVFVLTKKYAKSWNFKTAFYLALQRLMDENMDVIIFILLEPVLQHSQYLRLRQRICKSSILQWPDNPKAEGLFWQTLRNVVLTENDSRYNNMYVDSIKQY
- Protocol: Antagonist activity at R848 stimulated TRL8 overexpressed in HEK293 cells measured after 20 to 24 hrs by SEAP reporter assay
- Type: cell-based
Result type: IC50 (nM)

{"Smi": "Cc1cccc(-c2ccnc3c(C(N)=O)cnn23)c1", "Reported": 67}
